- measurement target: human ACVR2A (human, UniProt P27037 20-135, limits assumed); note: test concentration or dose not given here
- Sequence (P27037 20-135 limits assumed): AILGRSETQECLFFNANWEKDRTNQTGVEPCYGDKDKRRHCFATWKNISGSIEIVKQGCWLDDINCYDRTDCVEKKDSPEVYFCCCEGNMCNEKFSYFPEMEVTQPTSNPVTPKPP
- protocol summary: ELISA
quantity name: optical density (OD)
API: value field is a number in OD; no unit string.

367_G07 (antibody, V domains shown, VH/VL only) VH: EVQLLESGGGLVQPGGSLRLSCAASGFTFDSYSMNWVRQAPGKGLEWVANINYNGGYTGYADSVKGRFTISRDNSKNTLYLQMNSLRAEDTAVYYCARSATWHDTHLDYWGQGTLVTVSS VL: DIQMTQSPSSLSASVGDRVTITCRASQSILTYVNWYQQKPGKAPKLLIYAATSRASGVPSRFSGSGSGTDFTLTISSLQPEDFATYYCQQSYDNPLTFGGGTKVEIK : 3.02

[ask] Given 374_F10 (antibody, V domains shown, VH/VL only) VH: EVQLLESGGGLVQPGGSLRLSCAASGFTFSSYSMNWVRQAPGKGLEWVSGINYNGGYTSYADSVKGRFTISRDNSKNTLYLQMNSLRAEDTAVYYCARSANWHDTALDYWGQGTLVTVSS VL: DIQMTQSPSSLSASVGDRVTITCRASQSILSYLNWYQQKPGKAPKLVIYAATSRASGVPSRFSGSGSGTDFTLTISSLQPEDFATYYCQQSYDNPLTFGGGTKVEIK , state its recorded optical density.
[reply] 3.21
